assay: Active ingredient assay on storage, SCB239-12 (Table 3); format: physicochemical; details: 2 month storage, 40° C.
Quick list: Assay (% w/w) per entry.
Just the number please, in % w/w, no unit attached.

Use these answered entries as a reference point.
- compound: "CCCCCCC(C)OC(=O)COc1nc(F)c(Cl)c(N)c1Cl (centres unmarked)"
  reading-unit: "% w/w"
  Assay (% w/w): 11.13
- compound: "COc1nn(C(=O)[N-]S(=O)(=O)c2ccccc2OC(F)(F)F)c(=O)n1C.[Na+] [Flucarbazone, Flucarbazone Sodium]"
  reading-unit: "% w/w"
  Assay (% w/w): 1.80
- compound: "CCCCCC(C)OC(=O)COc1ccc(Cl)c2cccnc12 (centres unmarked)"
  reading-unit: "% w/w"
  Assay (% w/w): 0.35
- compound: "CCCCC(CC)COC(=O)COc1ccc(Cl)cc1C (centres unmarked)"
  reading-unit: "% w/w"
  Assay (% w/w): 33.84

Could you now consider this next compound?
Q) // lookup Assay (% w/w) for CCCCCCCC(=O)Oc1c(Br)cc(C#N)cc1Br [Bromoxynil, Bromoxynil Octanoate]
A) 29.43

---

test: Active ingredient assay and recovery on storage (Table 2); format: physicochemical; conditions: 3 month storage, 40° C.
Quick list: Assay (% w/w) per entry.
Just the number please, in % w/w, no unit attached.

Use these answered entries as a reference point.
- compound: "CCCCC(CC)COC(=O)COc1ccc(Cl)cc1C (centres unmarked) [MCPA]"
  numeric-result: 35.28
- compound: "CCCCCCC(C)OC(=O)COc1nc(F)c(Cl)c(N)c1Cl (centres unmarked) [Fluroxypyr, Fluroxypyr Meptyl]"
  numeric-result: 11.69
- compound: "CCCCCCCC(=O)Oc1c(Br)cc(C#N)cc1Br [Bromoxynil, Bromoxynil Octanoate]"
  numeric-result: 32.17
- compound: "COc1nn(C(=O)[N-]S(=O)(=O)c2ccccc2OC(F)(F)F)c(=O)n1C.[Na+] [Flucarbazone, Flucarbazone Sodium]"
  numeric-result: 1.94

Q) // lookup Assay (% w/w) for CCCCCC(C)OC(=O)COc1ccc(Cl)c2cccnc12 (centres unmarked) [cloquintocet, Cloquintocet Mexyl]
A) 0.40

---

assay: Active ingredient assay and recovery on storage (Table 2); format: physicochemical; details: 1 month storage, 40° C.
Given measured Assay (% w/w), output T if it is greater than or equal to 10 % w/w and F if not.

# count of solved cases: 4
- compound: "CCCCCCCC(=O)Oc1c(Br)cc(C#N)cc1Br [Bromoxynil, Bromoxynil Octanoate]"
  discrete-label: "T"
- compound: "CCCCC(CC)COC(=O)COc1ccc(Cl)cc1C (centres unmarked)"
  discrete-label: "T"
- compound: "CCCCCCC(C)OC(=O)COc1nc(F)c(Cl)c(N)c1Cl (centres unmarked)"
  discrete-label: "T"
- compound: "COc1nn(C(=O)[N-]S(=O)(=O)c2ccccc2OC(F)(F)F)c(=O)n1C.[Na+] [Flucarbazone, Flucarbazone Sodium]"
  discrete-label: "F"

Next compound, please.
Q) Check this compound for Assay (% w/w) at or above 10 % w/w: CCCCCC(C)OC(=O)COc1ccc(Cl)c2cccnc12 (centres unmarked)
A) F

---

test: Active ingredient assay on storage, SCB239-12 (Table 3); assay type: physicochemical; details: 3 month storage, 25° C.
Given measured Assay (% w/w), output True if it is greater than or equal to 10 % w/w and False if not.

# count of solved cases: 3
- compound: "COc1nn(C(=O)[N-]S(=O)(=O)c2ccccc2OC(F)(F)F)c(=O)n1C.[Na+] [Flucarbazone, Flucarbazone Sodium]"
  discrete-label: "False"
- compound: "CCCCCCC(C)OC(=O)COc1nc(F)c(Cl)c(N)c1Cl (centres unmarked)"
  discrete-label: "True"
- compound: "CCCCCCCC(=O)Oc1c(Br)cc(C#N)cc1Br [Bromoxynil, Bromoxynil Octanoate]"
  discrete-label: "True"

Q) Check this compound for Assay (% w/w) at or above 10 % w/w: CCCCC(CC)COC(=O)COc1ccc(Cl)cc1C (centres unmarked)
A) True

Q) Check this compound for Assay (% w/w) at or above 10 % w/w: CCCCCC(C)OC(=O)COc1ccc(Cl)c2cccnc12 (centres unmarked)
A) False
